- Tested on: Saccharomyces cerevisiae
- Test description: protein stability index of tFT-peptide fusion (C-terminal peptide) (PSI (0-1 scale)); higher = more stable (slower turnover)
- Reported conditions: genetic background: wild type; temperature: 30 C
Rule: protein stability index of 0.7 or more gives T; anything lower gives F.

DAHIYNKRSKPD [PHO80 C-terminal 12 aa] : F
LETLKKKKKRNN [MAK5 C-terminal 12 aa] : F
GPTIPISATIRE [RCK2 C-terminal 12 aa] : T

Attention now turns to another entry.
Task item: Determine whether measured protein stability index meets or exceeds 0.7 for CSGAAGKIYVCD [CDC40 C-terminal 12 aa]
Reply: T
